- System: MDA-MB-231 breast
- PROTOCOL DETAILS: NCI-60 one-dose screen, 48 h
- ASSAY SETUP: 10 µM unless noted
About 83,000 compounds went through this panel and 20% of them were active in at least one assay; those are over-represented in the sample as a whole. Calls of active or inactive are those of the source. Rule for the calls: active = growth percent below 10; inactive = the rest.
Form entry, call: pick from active, inactive

CCc1ccccc1-n1c(-c2ccc(Cl)cc2)cc(-c2ccc(Cl)cc2)c(C#N)c1=O
inactive
CCCCCCCCCCCCCCCCCCOc1ccc(CC(=O)OCC[N+]2(C)CCCC2)cc1
inactive
COc1cc(C(=O)c2cc(C)c3[nH]c4ccc(Cl)cc4c3c2C)cc(OC)c1OC
inactive
Cc1ccccc1NC(=O)N/C(N)=N/c1nc(C)c(C)s1
inactive
CC(C)(C)c1ccc(/C=C/C(=O)Nc2ccc(O)cc2)cc1
inactive

Ask: For this molecule, state the assay outcome: O=S(=O)(NCCCNc1cc(-c2c(-c3cccc(O)c3)nc3sccn23)ccn1)c1cccc(Cl)c1
Reply: inactive

###

- Test system: NCI-H522 lung
- PROTOCOL DETAILS: NCI-60 one-dose screen, 48 h (100 = growth as untreated, 0 = no growth, -100 = all killed)
- ASSAY SETUP: 10 µM unless noted
About 83,000 compounds went through this panel and 20% of them were active in at least one assay; those are over-represented in the sample as a whole.
Kindly apply the following: Satisfied if growth is less than 80%, Not satisfied in every other case.

Take a look at these entries with their results.
COc1ccc(CNC(=O)C(O)C(Cc2ccccc2)NC(=O)c2[nH]c3ccccc3c(=O)c2C)cc1OC (stereo not given)
Not satisfied
COc1ccc(-c2nc(SCCC(C)C)nc(N/N=C\c3cccc([N+](=O)[O-])c3)c2C#N)cc1
Satisfied
O=C1/C(=C\c2cccnc2)SC(=S)N1CCc1ccc(O)cc1
Satisfied

Field: next molecule
Ask: Hello, I'm reviewing records and need to know if growth of COc1ccc(-c2nc3sccn3c2-c2cc(-c3cc(OC)c(OC)c(OC)c3)on2)cc1 is below 80%. Could you check?
Reply: Not satisfied

###

Would you kindly list growth for each of these compounds?
- System: SF-539 CNS
- PROTOCOL DETAILS: NCI-60 one-dose screen, 48 h (100 = growth as untreated, 0 = no growth, -100 = all killed)
- ASSAY SETUP: 10 µM unless noted
This is part of a sample that, as a whole, favours compounds with a hit. Of some 83,000 tested, about 20% had one in any assay. Active and inactive are the calls of the source. How the source made its calls: active means growth percent below 10; inactive means the rest.

Completed entries (count: 2):
O=C(O)c1ccc2c(c1Cl)C(=O)c1ccccc1C2=O
102% (inactive)
C=C(C)[C@@H]1CC=C2c3sc(-c4ccc(C)cc4)nc3C[C@@H](C)[C@]2(C)C1
102% (inactive)

Ask: Quick one: growth of CCN(CCNc1ccc(C)c2sc3ccccc3c(=O)c12)CC(C)(C)O ?
Reply: 78.9% (inactive)

###

Would you kindly list growth for each of these compounds?
- Tested on: OVCAR-4 ovarian
- PROTOCOL DETAILS: NCI-60 one-dose screen, 48 h (100 = growth as untreated, 0 = no growth, -100 = all killed)
- ASSAY SETUP: 10 µM unless noted
- Experimental: Growth inhibition of the OVCAR-4 human tumor cell line is measured as a screen for anti-cancer activity. Cells are grown in 96 well plates and exposed to the test compound for 48 hours. Compounds are tested at a single concentration, which is 10^-5 M for most compounds. The reported endpoint is percent growth (GI% or GIPRCNT), where numbers from 0 - 100% represent growth inhibition, and numbers from -100% - 0 represent cell death. For example, a value of 40 represents 60% growth inhibition. […]
About 83,000 compounds went through this panel and 20% of them were active in at least one assay; those are over-represented in the sample as a whole. Activity calls are given as the source filed them. How the source made its calls: active means growth percent below 10; inactive means the rest.

COc1ccccc1CNCCCN1C(=O)c2ccc3c4c(ccc(c24)C1=O)C(=O)N(CCCNCCCCN)C3=O
-84.9% (active)

List the reported growth of each compound below.
1. CC(CCc1ccc(Cl)c(Cl)c1)NCc1ccc(C(C)(C)C)cc1 (centres undefined)
2. COc1cccc2c1C(=O)c1c(O)c3c(c(O)c1C2=O)CC(O)(/C(C)=N/NC(=O)CCCCC(=O)N/N=C(\C)C1(O)Cc2c(O)c4c(c(O)c2C(OC2CC(N)C(O)C(C)O2)C1)C(=O)c1c(OC)cccc1C4=O)CC3OC1CC(N)C(O)C(C)O1 (centres undefined)
3. O=C(Nc1ccccc1)Nc1cccc(Oc2nnc(Cl)c3ccccc23)c1
4. O=C(/C=C/c1c(Cl)nc2sccn12)c1nccs1
5. O=c1ssc(Cl)c1-c1ccccc1
6. COc1cccc(-c2nn(-c3ccccc3)cc2-c2ccnc(NCCCNC(=O)c3ccc(F)cc3)c2)c1
7. CCOc1ccccc1-n1c(CN2CCN(C(=O)COc3ccc(CNCCCCCCN4C5CCCC4CC(OC(=O)Nc4cc(C)ccc4OC)C5)cc3)CC2)nc2ccccc2c1=O (centres undefined)
8. O=C1CCC2=C3C4CCCCC4C(=O)C4CCCC(OC2C1)C34 (centres undefined)

Reply:
1. 88.1% (inactive)
2. -9.94% [5 µM] (active)
3. 0.217% (active)
4. 109% (inactive)
5. 98.4% (inactive)
6. 42.1% (inactive)
7. -84.7% (active)
8. 22.1% (inactive)

List the reported growth of each compound below.
1. CCCCNC(=O)Oc1ccc2c(=O)c3sc4c(=O)c5ccccc5c(=O)c4c3c(=O)c2c1
2. Cc1ccccc1NC(=O)N/C(N)=N/c1nc(C)c(C)s1
3. O=C(NCCNc1cc(-c2cn(-c3ccccc3)nc2-c2cccc(O)c2)ccn1)Nc1ccccc1
4. CCN(CC)CCCC(C)Nc1c2ccc(Cl)cc2nc2ccc(O)cc12 (centres undefined)
5. NCCCNc1nc2ccccc2c2c(=O)c3cccc(Cl)c3sc12
6. Cc1ccc(C(=O)C2=C(O)C(=O)N(Cc3cccnc3)C2c2ccccc2F)o1 (centres undefined)
7. COc1cccc(-c2nc3sccn3c2-c2ccnc(NCCNS(=O)(=O)c3cccc(Cl)c3)c2)c1

Reply:
-95.4% (active)
49.7% (inactive)
70.1% (inactive)
24.6% (inactive)
38.2% (inactive)
106% (inactive)
34% (inactive)

List the reported growth of each compound below.
1. CCN1C(=O)N(CC)C2Nn3c(s/c(=C\c4ccc(Cl)cc4Cl)c3=O)=NC21 (centres undefined)
2. CCn1c(C)nc2cc(C(N)=O)ccc21

Reply:
["56.7% (inactive)", "98.2% (inactive)"]

Ask: Quick one: growth of NC1=NCc2nc3ccccc3c(=O)n2C1 ?
Reply: 106% (inactive)

###

- Tested on: SK-OV-3 ovarian
- PROTOCOL DETAILS: NCI-60 one-dose screen, 48 h
- ASSAY SETUP: 10 µM unless noted
About 83,000 compounds went through this panel and 20% of them were active in at least one assay; those are over-represented in the sample as a whole. The source made the active and inactive calls. The calls were made as follows: active = growth percent below 10; inactive = the rest.
Form entry, call: pick from active, inactive

Take a look at these entries with their results.
CCc1ccccc1-n1c(N)c(C#N)c(-c2ccc(N(C)C)cc2)c(C#N)c1=O
inactive
CC(C)(C)c1ccc(/C=C/C(=O)Nc2ccc(O)cc2)cc1
inactive
CCN(CCNc1ccc(C)c2sc3ccccc3c(=O)c12)CC(C)(C)O
inactive

Ask: For this compound, state the assay outcome: COc1ccc2c(c1)C(=O)/C(=C/c1ccc(OCC(=O)Nc3nccs3)cc1)O2
Reply: inactive

Ask: For this compound, state the assay outcome: COc1cc(OC)cc(C2CC(=O)Nc3c2c(C)nn3-c2nc3ccccc3[nH]2)c1 (stereo not given)
Reply: active

Ask: For this compound, state the assay outcome: COc1cc(C2CC(=O)Nc3c2c(C)nn3-c2nc3ccccc3[nH]2)c(OC)c2c1OCO2 (stereo not given)
Reply: inactive

Ask: For this compound, state the assay outcome: CCN1CCN(c2cc(C)nc(NCc3cc(Nc4ccnc5cc(Cl)ccc45)ccc3F)n2)CC1
Reply: inactive

Ask: For this compound, state the assay outcome: O=C(O)c1ccc2c(c1Cl)C(=O)c1ccccc1C2=O
Reply: inactive

Ask: For this compound, state the assay outcome: Clc1ccc(-c2c3ccc(=[N+]4CCCCC4)cc-3oc3cc(N4CCCCC4)ccc23)cc1
Reply: active

Ask: For this compound, state the assay outcome: CCN(CC)c1ccc2nc3c4ccccc4c(=NC(=O)c4ccccc4-c4c5ccc(N(CC)CC)cc5[o+]c5cc(N(CC)CC)ccc45)cc-3oc2c1
Reply: inactive

Ask: For this compound, state the assay outcome: COC(=O)[C@]12CC[C@@H](C)[C@H](C)[C@@H]1C1=CC[C@@H]3[C@@]4(C)C(C=O)=C[C@@](C)(COC(=O)c5ccco5)C4=CC[C@@]3(C)[C@]1(C)CC2
Reply: inactive

###

- System: HOP-92 NSCLC
- PROTOCOL DETAILS: NCI-60 one-dose screen, 48 h
- ASSAY SETUP: 10 µM unless noted
About 83,000 compounds went through this panel and 20% of them were active in at least one assay; those are over-represented in the sample as a whole. The source made the active and inactive calls. How the source made its calls: active means growth percent below 10; inactive means the rest.
Form entry, call: pick from active, inactive

Take a look at these entries with their results.
Cc1cc(Cl)nc(NCc2cc(Nc3ccnc4cc(Cl)ccc34)ccc2F)n1
inactive
CCCCNC(=O)Oc1ccc2c(=O)c3sc4c(=O)c5ccccc5c(=O)c4c3c(=O)c2c1
active
N#Cc1c(-c2ccccc2)cc(-c2ccc(Nc3nc(Nc4ccc(F)cc4)nc(Nc4ccc(F)cc4)n3)cc2)nc1N
inactive
NC(N)=Nc1nc2ccccc2n2c1nc1ccccc12
inactive

Ask: For this compound, state the assay outcome: O=Cc1c[nH]c2ccc(-c3csc4ccccc34)cc12
Reply: inactive

Ask: For this compound, state the assay outcome: Cc1ccc2nc3ccccc3c(NCc3ccccc3)c2c1
Reply: active
